Kindly supply the reported pIC50 values for the records listed here.
- target or system: NACHT, LRR and PYD domains-containing protein 3 (Mus musculus)
- test details: Inhibition of NLRP3 in mouse J774.A1 cells assessed as reduction IL-1beta release by ELISA
Units for pIC50: none; it is -log10 of a concentration expressed in mol/L.

Which pIC50 value belongs to CC[C@H](NC(=O)c1c(C)c(-c2cccc(F)c2)nc2ccc(OC)cc12)c1ccccc1 ?
5.98

Further, for CC[C@H](NC(=O)c1c(C)c(-c2cccc(Cl)c2)nc2ccccc12)c1ccccc1 ?
6.05

Further, for Cc1ccccc1NC(=O)c1cc(-c2ccccc2)nc2ccccc12 ?
4.86

Further, for O=C(N[C@@H]1CCc2ccccc21)c1cc(-c2ccccc2)nc2ccccc12 ?
5.10

Further, for O=C(Nc1ccccc1)c1cc(-c2ccccc2)nc2ccccc12 ?
5.68

* * *

- target or system: NACHT, LRR and PYD domains-containing protein 3 (Mus musculus, UniProt Q8R4B8)
- Sequence (Q8R4B8 whole entry, the tested form may be a part): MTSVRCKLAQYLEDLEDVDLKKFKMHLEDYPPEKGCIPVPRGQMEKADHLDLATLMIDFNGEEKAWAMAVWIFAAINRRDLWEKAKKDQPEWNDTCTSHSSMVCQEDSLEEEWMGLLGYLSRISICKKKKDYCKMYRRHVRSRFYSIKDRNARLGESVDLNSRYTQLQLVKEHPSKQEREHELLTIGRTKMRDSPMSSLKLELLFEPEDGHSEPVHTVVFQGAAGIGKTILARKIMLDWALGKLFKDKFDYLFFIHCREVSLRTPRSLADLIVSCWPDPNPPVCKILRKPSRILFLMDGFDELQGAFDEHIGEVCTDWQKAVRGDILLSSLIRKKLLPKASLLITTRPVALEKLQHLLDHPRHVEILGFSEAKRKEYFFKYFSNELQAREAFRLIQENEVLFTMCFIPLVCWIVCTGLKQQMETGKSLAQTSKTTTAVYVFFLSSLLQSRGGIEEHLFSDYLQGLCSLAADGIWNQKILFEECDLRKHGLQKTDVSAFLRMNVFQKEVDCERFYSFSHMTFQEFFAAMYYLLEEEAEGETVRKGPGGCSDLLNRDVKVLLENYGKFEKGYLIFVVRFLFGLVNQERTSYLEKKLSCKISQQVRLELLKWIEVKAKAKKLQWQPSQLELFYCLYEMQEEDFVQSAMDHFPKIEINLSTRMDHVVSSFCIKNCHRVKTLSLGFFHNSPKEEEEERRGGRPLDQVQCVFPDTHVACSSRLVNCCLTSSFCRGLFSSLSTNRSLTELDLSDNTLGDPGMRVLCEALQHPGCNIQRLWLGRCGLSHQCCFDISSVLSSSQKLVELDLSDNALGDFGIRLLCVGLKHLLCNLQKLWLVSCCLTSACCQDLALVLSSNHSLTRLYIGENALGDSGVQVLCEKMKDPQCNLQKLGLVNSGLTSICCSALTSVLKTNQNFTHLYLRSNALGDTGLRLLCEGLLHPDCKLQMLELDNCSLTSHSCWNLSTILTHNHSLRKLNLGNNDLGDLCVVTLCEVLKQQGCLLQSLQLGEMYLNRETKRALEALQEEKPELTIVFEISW
- test details: Inhibition of NLRP3 in mouse J774.A1 cells assessed as reduction IL-1beta release by ELISA
measurement type: pIC50
Units for pIC50: none; it is -log10 of a concentration expressed in mol/L.

Which pIC50 value belongs to CC[C@H](NC(=O)c1c(C)c(-c2cccc(F)c2)nc2cc(OC)ccc12)c1ccccc1 ?
5.92

Further, for CC[C@H](NC(=O)c1c(C)c(-c2cccc(F)c2)nc2ccc([N+](=O)[O-])cc12)c1ccccc1 ?
6.03

Further, for O=C(NC1CC(F)(F)C1)c1cc(-c2ccccc2)nc2ccccc12 ?
5.24

Further, for CC[C@H](NC(=O)c1cc(-c2cccc(F)c2)nc2ccccc12)c1ccccc1 ?
5.55

Further, for COC(=O)[C@@H](NC(=O)c1cc(-c2ccccc2)nc2ccccc12)c1ccccc1 ?
5.52

Further, for CC[C@H](NC(=O)c1c(C)c(-c2cccc(F)c2)nc2c(NC(C)=O)cccc12)c1ccccc1 ?
6.14

Further, for CC[C@H](NC(=O)c1c(C)c(-c2cccc(F)c2)nc2c(Cl)cccc12)c1ccccc1 ?
6.15

Further, for CC[C@H](NC(=O)c1c(C)c(-c2cccc(F)c2)nc2cc(Cl)ccc12)c1ccccc1 ?
6.04

* * *

Kindly supply the reported pIC50 values for the records listed here.
- target or system: NACHT, LRR and PYD domains-containing protein 3 (Mus musculus, UniProt Q8R4B8)
- test details: Inhibition of NLRP3 in mouse J774.A1 cells assessed as reduction IL-1beta release by ELISA
- Format: cell-based
Units for pIC50: none; it is -log10 of a concentration expressed in mol/L.

Which pIC50 value belongs to CSc1ccccc1NC(=O)c1cc(-c2ccccc2)nc2ccccc12 ?
5.51

Further, for CC[C@H](NC(=O)c1c(C)c(-c2ccc(F)cc2)nc2ccccc12)c1ccccc1 ?
5.95

Further, for CC[C@H](NC(=O)c1cc(-c2ccccc2)nc2ccccc12)c1ccccc1 ?
5.89

Further, for O=C(Nc1ccccc1OCc1ccccc1)c1cc(-c2ccccc2)nc2ccccc12 ?
4.11

Further, for O=C(N[C@H]1CCc2ccccc21)c1cc(-c2ccccc2)nc2ccccc12 ?
5.35

* * *

Kindly supply the reported pIC50 values for the records listed here.
- target or system: NACHT, LRR and PYD domains-containing protein 3 (Mus musculus, UniProt Q8R4B8)
- test details: Inhibition of NLRP3 in mouse J774.A1 cells assessed as reduction IL-1beta release by ELISA
Units for pIC50: none; it is -log10 of a concentration expressed in mol/L.

Which pIC50 value belongs to CC[C@H](NC(=O)c1ccnc2ccccc12)c1ccccc1 ?
3.90

Further, for CC[C@H](NC(=O)c1c(C)c(-c2cccc(F)c2)nc2c(OC)cccc12)c1ccccc1 ?
5.97

Further, for CC[C@H](NC(=O)c1c(C)c(-c2cccc(F)c2)nc2c([N+](=O)[O-])cccc12)c1ccccc1 ?
6.74

Further, for CCN(CC)CCCC(C)Nc1ccnc2cc(Cl)ccc12 (stereo not given) ?
4.06

Further, for CC[C@H](NC(=O)c1c(C)c(-c2cccc(F)c2)nc2ccc(Cl)cc12)c1ccccc1 ?
6.09

Further, for CC[C@H](NC(=O)c1c(C)c(-c2ccc(C(F)(F)F)cc2)nc2ccccc12)c1ccccc1 ?
5.56

Further, for CC[C@H](NC(=O)c1c(C)c(-c2cccc(F)c2)nc2c(NS(=O)(=O)C3CC3)cccc12)c1ccccc1 ?
6.38

Further, for CC[C@@H](NC(=O)c1cc(-c2ccccc2)nc2ccccc12)c1ccccc1 ?
5.68

Further, for O=C(NCCc1ccccc1)c1cc(-c2ccccc2)nc2ccccc12 ?
4.15

Further, for CC[C@H](NC(=O)c1cc(Cl)nc2ccccc12)c1ccccc1 ?
4.07

Further, for CC[C@H](NC(=O)c1c(C)c(-c2ccccc2)nc2ccccc12)c1ccccc1 ?
5.90

Further, for CC[C@H](NC(=O)c1c(C)c(-c2cccc(F)c2)nc2ccc(Br)cc12)c1ccccc1 ?
5.92

Further, for CC[C@H](NC(=O)c1c(C)c(-c2cccc(F)c2)nc2cc(Br)ccc12)c1ccccc1 ?
6.04

Further, for Cc1ccccc1CNC(=O)c1cc(-c2ccccc2)nc2ccccc12 ?
5.37

Further, for Cc1ccc(O)cc1NC(=O)c1cc(-c2ccccc2)nc2ccccc12 ?
5.15

Further, for CCN(CC)CCCC(C)NC(=O)c1cc(-c2ccccc2)nc2ccccc12 (stereo not given) ?
4.94

Further, for CC[C@H](NC(=O)c1c(C)c(-c2cccc(F)c2)nc2ccccc12)c1ccccc1 ?
6.23

Further, for CC[C@H](NC(=O)c1cc(C)nc2ccccc12)c1ccccc1 ?
4.07

Further, for CC[C@H](NC(=O)c1c(C)c(-c2cccc(F)c2)nc2ccc(F)cc12)c1ccccc1 ?
5.87

Further, for CCC(C)NC(=O)c1cc(-c2ccccc2)nc2ccccc12 (stereo not given) ?
4.40
